biological target: human SGLT1 (Homo sapiens, UniProt P13866); construct: expressed in transfected cells; assay: Cell-based assay for sodium-dependent glucose transport (14C-AMG uptake), CHOK-SGLT1; conditions: 10 μM compound; CHO-K1 cells stably expressing human SGLT1; read-out: CHOK-SGLT1 % Inh. @ 10 μM
Sequence (P13866 whole entry): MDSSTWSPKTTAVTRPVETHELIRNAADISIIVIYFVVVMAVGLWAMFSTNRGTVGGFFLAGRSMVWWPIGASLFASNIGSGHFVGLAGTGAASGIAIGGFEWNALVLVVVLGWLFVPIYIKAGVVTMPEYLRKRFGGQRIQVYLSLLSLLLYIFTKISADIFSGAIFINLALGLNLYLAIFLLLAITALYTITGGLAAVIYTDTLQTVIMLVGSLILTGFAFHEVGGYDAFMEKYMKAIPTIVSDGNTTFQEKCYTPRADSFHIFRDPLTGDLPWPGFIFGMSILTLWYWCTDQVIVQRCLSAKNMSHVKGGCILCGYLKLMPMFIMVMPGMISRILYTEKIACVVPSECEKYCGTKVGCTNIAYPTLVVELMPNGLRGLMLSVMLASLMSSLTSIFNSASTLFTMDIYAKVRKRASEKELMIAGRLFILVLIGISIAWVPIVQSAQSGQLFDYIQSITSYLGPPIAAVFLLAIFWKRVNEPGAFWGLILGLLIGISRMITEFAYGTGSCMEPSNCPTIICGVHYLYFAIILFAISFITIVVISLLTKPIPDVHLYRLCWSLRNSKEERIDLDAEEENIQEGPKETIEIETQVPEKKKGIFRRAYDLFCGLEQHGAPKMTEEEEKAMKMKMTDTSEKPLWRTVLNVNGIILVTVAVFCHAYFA
measured endpoint: inhibition at 10 µM (%)

Observe how each entry below is paired with its result.
- smiles notation: "CCc1ccc(Cc2c(C)[nH]c3cccc(O[C@@H]4O[C@H](CO)[C@@H](O)[C@H](O)[C@H]4O)c23)cc1"
  units label: "%"
  inhibition at 10 µM: 16
- smiles notation: "OC[C@H]1O[C@@H](Oc2cccc3[nH]cc(Cc4ccc5ccccc5c4)c23)[C@H](O)[C@@H](O)[C@@H]1O"
  units label: "%"
  inhibition at 10 µM: 68

[1] CCc1ccc(C(=O)c2c[nH]c3cccc(O[C@@H]4O[C@H](CO)[C@@H](O)[C@H](O)[C@H]4O)c23)cc1
[2] CCCCCC(=O)OC[C@H]1O[C@@H](Oc2cccc3[nH]cc(Cc4ccc(CC)cc4)c23)[C@H](O)[C@@H](O)[C@@H]1O
Input line: Would you let me know which has the greater inhibition at 10 µM value, 1 or 2 ? Write the label of whichever entry you select.
Output line: 2

[I] CC(C)c1ccc(Cc2c[nH]c3cccc(O[C@@H]4O[C@H](CO)[C@@H](O)[C@H](O)[C@H]4O)c23)cc1
[II] OC[C@H]1O[C@@H](Oc2cccc3[nH]cc(Cc4ccc5c(c4)CCO5)c23)[C@H](O)[C@@H](O)[C@@H]1O
Input line: Would you let me know which has the greater inhibition at 10 µM value, I or II ? Write the label of whichever entry you select.
Output line: I
(I: 49%, II: 30%)

----------
biological target: human SGLT1 (Homo sapiens); construct: expressed in transfected cells; experiment: Cell-based assay for sodium-dependent glucose transport (14C-AMG uptake), CHOK-SGLT1; details: 10 μM compound; CHO-K1 cells stably expressing human SGLT1; read-out: CHOK-SGLT1 % Inh. @ 10 μM
measured endpoint: inhibition at 10 µM (%)

Observe how each entry below is paired with its result.
- compound: "OC[C@H]1O[C@@H](Oc2cccc3[nH]cc(Cc4ccc(-c5ccccc5)c(F)c4)c23)[C@H](O)[C@@H](O)[C@@H]1O [Example 20]"
  measured target: "human SGLT1 (Homo sapiens)"
  measured endpoint: "inhibition at 10 µM"
  recorded number: 35
- compound: "Cc1ccsc1Cc1c[nH]c2cccc(O[C@@H]3O[C@H](CO)[C@@H](O)[C@H](O)[C@H]3O)c12 [Example 34]"
  measured target: "human SGLT1 (Homo sapiens)"
  measured endpoint: "inhibition at 10 µM"
  recorded number: 27

[A] CCc1ccc(CCc2c[nH]c3cccc(O[C@@H]4O[C@H](CO)[C@@H](O)[C@H](O)[C@H]4O)c23)cc1 [Example 9]
[B] COc1ccc(Cc2c[nH]c3cccc(O[C@@H]4O[C@H](CO)[C@@H](O)[C@H](O)[C@H]4O)c23)cc1F [Example 24]
Input line: Which gives the smaller inhibition at 10 µM number: A or B ? Write the label of whichever entry you select.
Output line: A

[a] OC[C@H]1O[C@@H](Oc2cccc3[nH]cc(Cc4ccc(-c5ccccc5)cc4)c23)[C@H](O)[C@@H](O)[C@@H]1O [Example 19]
[b] CCN(CC)C(=O)n1cc(Cc2ccc(OC)cc2)c2c(O[C@@H]3O[C@H](CO)[C@@H](O)[C@H](O)[C@H]3O)cccc21 [Example 21]
[c] CCc1ccc(Cc2c[nH]c3cc(C)cc(O[C@@H]4O[C@H](CO)[C@@H](O)[C@H](O)[C@H]4O)c23)cc1 [Example 32]
Input line: Order field: inhibition at 10 µM | Direction: descending (largest first) State the ranking by listing the labels in the requested order.
Output line: a, b, c
(a: 63%, b: 43%, c: 30%)
